# collection of pIC50 values tested on Acetylcholinesterase (Electrophorus electricus, UniProt O42275)
# Sequence (O42275 whole entry): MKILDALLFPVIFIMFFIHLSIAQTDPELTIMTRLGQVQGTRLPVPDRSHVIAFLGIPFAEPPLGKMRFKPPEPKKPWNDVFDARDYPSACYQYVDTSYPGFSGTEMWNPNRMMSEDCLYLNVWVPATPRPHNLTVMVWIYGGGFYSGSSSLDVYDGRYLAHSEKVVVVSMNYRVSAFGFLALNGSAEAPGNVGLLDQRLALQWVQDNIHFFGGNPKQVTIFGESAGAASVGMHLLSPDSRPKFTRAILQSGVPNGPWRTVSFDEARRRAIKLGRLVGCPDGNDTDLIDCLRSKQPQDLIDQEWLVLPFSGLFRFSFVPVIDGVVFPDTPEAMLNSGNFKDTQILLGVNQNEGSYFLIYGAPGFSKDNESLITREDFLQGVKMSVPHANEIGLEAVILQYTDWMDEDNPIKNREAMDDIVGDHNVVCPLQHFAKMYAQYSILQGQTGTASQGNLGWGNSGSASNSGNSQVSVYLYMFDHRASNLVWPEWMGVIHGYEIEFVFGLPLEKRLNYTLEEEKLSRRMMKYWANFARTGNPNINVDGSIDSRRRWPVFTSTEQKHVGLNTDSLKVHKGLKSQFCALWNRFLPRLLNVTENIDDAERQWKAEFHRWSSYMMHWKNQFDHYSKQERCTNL
Lab note — pIC50 values are minus log10 of concentrations in M.

What pIC50 appears in the records for this compound with Acetylcholinesterase (Electrophorus electricus, UniProt O42275)? CN(Cc1ccccc1)Cc1ccc(NC(=O)/C=C/c2ccc(O)c(O)c2)cc1
5.33

What pIC50 appears in the records for this compound with Acetylcholinesterase (Electrophorus electricus, UniProt O42275)? CCN(Cc1ccccc1)Cc1ccc(NC(=O)Cc2ccc(O)c(O)c2)cc1
5.44

What pIC50 appears in the records for this compound with Acetylcholinesterase (Electrophorus electricus, UniProt O42275)? COc1cc(/C=C/C(=O)Nc2ccc(CN(C)Cc3ccccc3)cc2)ccc1O
5.40

What pIC50 appears in the records for this compound with Acetylcholinesterase (Electrophorus electricus, UniProt O42275)? COc1ccc(/C=C/C(=O)Nc2ccc(CN(C)Cc3ccccc3)cc2)cc1OC
5.71

What pIC50 appears in the records for this compound with Acetylcholinesterase (Electrophorus electricus, UniProt O42275)? CN(Cc1ccccc1)Cc1ccc(NC(=O)/C=C/c2ccccc2)cc1
5.28

What pIC50 appears in the records for this compound with Acetylcholinesterase (Electrophorus electricus, UniProt O42275)? COc1ccc(/C=C/C(=O)Nc2ccc(CN(C)Cc3ccccc3)cc2)cc1
5.43

Hello, the source for this data is ChEMBL document CHEMBL4190315, in case you need it.
